In this section we review reported glycan array binding signal (z-score) values for a set of binders.
- Target: Neu5Ac(a2-8)Neu5Ac(a2-8)Neu5Ac
- Method Description: glycan array binding signal (z-score within array); higher = stronger binding
- Recorded Conditions: glycan notation: IUPAC condensed, linker removed
Many of the other results were omitted from the sample, so the strongest signals are more common in it than they were.
Reported Property: glycan array binding signal (z-score)

Binder	Observed Result
NPA (Narcissus pseudonarcissus), C0HM45 (protein) DNILYSGETLSPGEFLNNGRYVFIMQEDCNLVLYDVDKPIWATNTGGLDRRCHLSMQSDGNLVVYSPRNNPIWASNTGGENGNYVCVLQKDRNVVIYGTARWATGTNIH	-0.156
Sebin2 (Coprinopsis cinerea), A8PE78 (protein) MTTPFYAYCHNVQDDNTWRLGLVFANRSTADEWWRAISEATSSIPITKSITRVTPQYYTHDIRVWNMYNFFVDGNIKSISDKFRGRLFITLEYDRSGRGVSVFPPLHIVDHVSGNWYYIRSKTAPHLFWFYDETRNAIYASKEKRTRFKVSIRNPSPQTPKDAIMINSDDVVIHIKESLYVGVDSYLGHIIPTRAYRTFKFGELEGGAIAGIEVAENAEERCSSTFDGASLYFVGPDSSSPGEPWELV	0.72
Gal-9-hFc (Mus musculus), O08573-2 (protein) MALFSAQSPYINPIIPFTGPIQGGLQEGLQVTLQGTTKSFAQRFVVNFQNSFNGNDIAFHFNPRFEEGGYVVCNTKQNGQWGPEERKMQMPFQKGMPFELCFLVQRSEFKVMVNKKFFVQYQHRVPYHLVDTIAVSGCLKLSFITFQTQNFRPAHQAPMAQTTIHMVHSTPGQMFSTPGIPPVVYPTPAYTIPFYTPIPNGLYPSKSIMISGNVLPDATRFHINLRCGGDIAFHLNPRFNENAVVRNTQINNSWGQEERSLLGRMPFSRGQSFSVWIICEGHCFKVAVNGQHMCEYYHRLKNLQDINTLEVAGDIQLTHVQT	2.03
GSL-I-B4 (Griffonia simplicifolia) (protein) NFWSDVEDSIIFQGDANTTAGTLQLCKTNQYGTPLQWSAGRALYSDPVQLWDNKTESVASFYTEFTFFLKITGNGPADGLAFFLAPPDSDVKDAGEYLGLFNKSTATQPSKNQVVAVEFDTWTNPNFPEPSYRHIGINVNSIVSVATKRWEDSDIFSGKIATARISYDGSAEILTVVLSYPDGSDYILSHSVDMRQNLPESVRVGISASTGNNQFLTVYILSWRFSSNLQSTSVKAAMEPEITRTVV	-0.144
